- Test system: HeLa
- ASSAY PROTOCOL: Cytotoxicity against human HeLa cells by SRB assay
- Assay type: functional
Recorded GI50 for the following compounds

Consider the worked cases shown below.
COc1ccc2c(c1)cc(C1SC(NC(C)=O)=NN1C(C)=O)c1nnnn12 (stereo unspecified) ... > 100 µM
CC(=O)NC1=NN(C(C)=O)C(c2cc3ccc(C)cc3n3nnnc23)S1 (stereo unspecified) ... 83.3 µM
COc1cccc2c1C(=O)c1c(O)c3c(c(O)c1C2=O)C[C@@](O)(C(=O)CO)C[C@@H]3O[C@H]1C[C@H](N)[C@H](O)[C@H](C)O1 ... < 0.1 µM

Hello, please tell me recorded GI50 for this one: CC(=O)NC1=NN(C(C)=O)C(c2cc3ccccc3n3nnnc23)S1 (stereo unspecified) > 100 µM

Hello, please tell me recorded GI50 for this one: CC(=O)NC1=NN(C(C)=O)C(c2cc3cc(Br)ccc3n3nnnc23)S1 (stereo unspecified) < 0.1 µM

Hello, please tell me recorded GI50 for this one: CC(=O)NC1=NN(C(C)=O)C(c2cc3cc(C)ccc3n3nnnc23)S1 (stereo unspecified) 81.3 µM

Hello, please tell me recorded GI50 for this one: COc1cccc2cc(C3SC(NC(C)=O)=NN3C(C)=O)c3nnnn3c12 (stereo unspecified) > 100 µM

Hello, please tell me recorded GI50 for this one: COc1cc2cc(C3SC(NC(C)=O)=NN3C(C)=O)c3nnnn3c2cc1OC (stereo unspecified) > 100 µM

Hello, please tell me recorded GI50 for this one: CC(=O)NC1=NN(C(C)=O)C(c2cc3cccc(C)c3n3nnnc23)S1 (stereo unspecified) 85.1 µM

Hello, please tell me recorded GI50 for this one: COc1ccc2cc(C3SC(NC(C)=O)=NN3C(C)=O)c3nnnn3c2c1 (stereo unspecified) > 100 µM

Hello, please tell me recorded GI50 for this one: CC(=O)NC1=NN(C(C)=O)C(c2cc3cc(Cl)ccc3n3nnnc23)S1 (stereo unspecified) < 0.1 µM
